B1: USP39 (parent)
chain: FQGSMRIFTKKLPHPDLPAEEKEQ

Variants of: B1
Assay: protein stability index of a GFP-peptide fusion (GPS, HEK-293T) (PSI 1-6); higher = more stable;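 further: lentivirally expressed fusions sorted by FACS into six bins by GFP to DsRed ratio, PSI derived from sequencing read proportions per bin multiplied by bin number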
Conditions: c terminus: a fixed tail appended
What protein stability index was measured for each of the following?
I only need the number, thanks.

Exercise: What measured protein stability index goes with `FQGSMRIFTKKLPHPDLKAEEKEQ` ?
Solution: 2.01

Exercise: What measured protein stability index goes with `FQGSMRIFTKKLPHPDMPAEEKEQ` ?
Solution: 1.95

Exercise: What measured protein stability index goes with `FQGSMRIFTKKLPWPDLPAEEKEQ` ?
Solution: 1.99

Exercise: What measured protein stability index goes with `FQGVMRIFTKKLPHPDLPAEEKEQ` ?
Solution: 1.95

Exercise: What measured protein stability index goes with `FQGSMRIFTKKLEHPDLPAEEKEQ` ?
Solution: 1.98
